# Test system: OVCAR-3 ovarian
# Protocol: NCI-60 one-dose screen, 48 h (100 = growth as untreated, 0 = no growth, -100 = all killed)
# Condition: 10 µM unless noted
About 83,000 compounds went through this panel and 20% of them were active in at least one assay; those are over-represented in the sample as a whole.
Assign class 1 to entries whose growth meets or exceeds 50%; assign class 0 to the rest.

compound=Oc1c(Cl)cc(Cl)c2ccc(Cn3cc(-c4cccc(C(F)(F)F)c4)nn3)nc12 target_or_test_system="OVCAR-3 ovarian" answer_label="class 0"
compound=CCN=C1C=CC(=C(c2ccc(N(C)C)cc2)c2ccc(N(C)C)cc2)c2ccccc21 target_or_test_system="OVCAR-3 ovarian" answer_label="class 0"
compound=COc1cc(C(=O)c2c(N)ncn2-c2ccccc2)cc(OC)c1OC target_or_test_system="OVCAR-3 ovarian" answer_label="class 1"
compound=Cn1c(O)c(C(/C=C/c2ccccc2)=Nc2ccccc2N)c(=O)n(C)c1=O target_or_test_system="OVCAR-3 ovarian" answer_label="class 1"
compound=CC1(C)CC[C@]2(C(=O)N3CCOCC3)CC[C@]3(C)C(=CC[C@@H]4[C@@]5(C)C/C(=C/c6ccncc6)C(=O)C(C)(C)[C@@H]5CC[C@]43C)[C@@H]2C1 target_or_test_system="OVCAR-3 ovarian" answer_label="class 0"
compound=CN(C)c1ccc(/C=C2/C=C(c3ccccc3)OC2=O)cc1 target_or_test_system="OVCAR-3 ovarian" answer_label="class 1"
compound=CCOC(=O)CSc1nc2sc3c(c2c(=O)n1-c1ccc([N+](=O)[O-])cc1)CCCCC3 target_or_test_system="OVCAR-3 ovarian" answer_label="class 1"
compound=N#Cc1c(-c2ccccc2)nc2c(c(-c3ccccc3)nn2-c2ccccc2)c1-c1ccc(N2CCOCC2)cc1 target_or_test_system="OVCAR-3 ovarian" answer_label="class 1"
compound=Cn1ncc2ccc(-c3nc(-c4ccccc4)[nH]c3-c3n[nH]c(=O)n3C3CC3)cc21 target_or_test_system="OVCAR-3 ovarian" answer_label="class 1"
compound="O=C(CN1C(=O)NC2NC(=O)NC21)N/N=C/c1ccc(Cl)cc1Cl (centres undefined)" target_or_test_system="OVCAR-3 ovarian" answer_label="class 1"
compound=O=C1Nc2ccccc2/C1=C/c1cn(C[C@@H](O)Cn2c3ccccc3c(=O)c3ccccc32)c2ccccc12 target_or_test_system="OVCAR-3 ovarian" answer_label="class 1"
compound=COC(=O)c1c2c(n3ccc(C)cc13)C(=O)c1ccccc1C2=O target_or_test_system="OVCAR-3 ovarian" answer_label="class 1"
compound=COc1ccc(C/C(C)=C(/c2ccc(OCCN3CCCCCC3)cc2)c2ccc(OC(=O)NCc3ccccc3)cc2)cc1 target_or_test_system="OVCAR-3 ovarian" answer_label="class 1"
compound=CS(=O)(=O)Cc1cnc(C2OCCO2)s1 target_or_test_system="OVCAR-3 ovarian" answer_label="class 1"
compound=NNC(=S)N/N=C/c1ccccn1 target_or_test_system="OVCAR-3 ovarian" answer_label="class 0"
compound=C[C@@H]1O[C@@H](O[C@@H]2C[C@H](c3ccc4c(c3O)C(=O)C3=C(C4=O)[C@@]4(O)C(=O)C[C@](C)(O)C[C@@]4(O)C=C3)O[C@H](C)[C@H]2O)C[C@H](O)[C@@H]1O target_or_test_system="OVCAR-3 ovarian" answer_label="class 1"
compound=O=[N+]([O-])/C(=C\c1ccco1)c1ccccc1Cl target_or_test_system="OVCAR-3 ovarian" answer_label="class 1"
compound=CN1CCN(C(=O)c2cc(-c3ccc4ncnc(N5CCc6cc(F)c(Cl)cc65)c4c3)cnc2N)CC1 target_or_test_system="OVCAR-3 ovarian" answer_label="class 0"
compound=O=C1/C(=C/c2cccc([N+](=O)[O-])c2)COc2ccc(O)cc21 target_or_test_system="OVCAR-3 ovarian" answer_label="class 0"
